Test system: HCC1599
Test: normalised viability (% of control), CellTiter-Blue; higher = more viable cells (about 100 = DMSO control)
Details: 1000 nM; incubation time: 72 h
Hi there, I'd appreciate the recorded normalised viability for every entry that follows.
Answer format reminder: number followed by unit.

Memo: C[C@@]1(C(=O)Nc2ccc(F)nc2)CCCN1c1nc(Nc2cc(C3CC3)n[nH]2)c2cccn2n1 , reported normalised viability: 55%

Memo: COc1cccc2c1C(=O)c1c(O)c3c(c(O)c1C2=O)C[C@@](O)(C(C)=O)C[C@@H]3O[C@H]1C[C@H](N)[C@H](O)[C@H](C)O1 , reported normalised viability: 53.7%

Memo: COC1=C2C[C@@H](C)C[C@H](OC)[C@H](O)[C@@H](C)/C=C(\C)[C@H](OC(N)=O)[C@@H](OC)/C=C\C=C(/C)C(=O)NC(=CC1=O)C2=O , reported normalised viability: 31.3%

Okay, here is my list. What is normalised viability for each of these?
1. COc1cc(Nc2ncc(F)c(Nc3ccc4c(n3)NC(=O)C(C)(C)O4)n2)cc(OC)c1OC
2. CCS(=O)(=O)c1cccc(-c2cc(C(=O)NC3CCN(C)CC3)c(C)c3[nH]c4ncc(C)cc4c23)c1
3. COC(=O)C[C@](O)(CCCC(C)(C)O)C(=O)O[C@@H]1C(OC)=C[C@]23CCCN2CCc2cc4c(cc2[C@H]13)OCO4 [Omacetaxine mepesuccinate]

## Result
["112%", "61.4%", "17%"]

----------
Tested on: CAL-85-1
Test: normalised viability (% of control), CellTiter-Blue; higher = more viable cells (about 100 = DMSO control)
Settings: incubation time: 72 h
Hi there, I'd appreciate the recorded normalised viability for every entry that follows.
Numbers only, in %.

Observed normalised viability on CAL-85-1, entry O=c1[nH]c(=O)n([C@H]2C[C@H](O)[C@@H](CO)O2)cc1F [Floxuridine] (300 nM) , equals 58.7

Observed normalised viability on CAL-85-1, entry CCOc1cc2ncc(C#N)c(Nc3ccc(OCc4ccccn4)c(Cl)c3)c2cc1NC(=O)/C=C/CN(C)C [Neratinib] (30 nM) , equals 107

Observed normalised viability on CAL-85-1, entry COC1=C2C[C@@H](C)C[C@H](OC)[C@H](O)[C@@H](C)/C=C(\C)[C@H](OC(N)=O)[C@@H](OC)/C=C\C=C(/C)C(=O)NC(=CC1=O)C2=O [Geldanamycin] (300 nM) , equals 47.7

Okay, here is my list. What is normalised viability for each of these?
1. O=P(O)(NCCCl)NCCCl [Ifosfamide mustard] (300 nM)
2. CS(=O)(=O)OCCCCOS(C)(=O)=O [Busulfan] (3000 nM)
3. Cn1c(=O)c(F)c(Nc2ccc(I)cc2F)c2c(=O)n(C[C@@H](O)CO)cnc21 [TAK-733] (30 nM)
4. CCS(=O)(=O)c1cccc(-c2cc(C(=O)NC3CCN(C)CC3)c(C)c3[nH]c4ncc(C)cc4c23)c1 [TAK-901] (30 nM)
5. COc1cc(Nc2ncc(F)c(Nc3ccc4c(n3)NC(=O)C(C)(C)O4)n2)cc(OC)c1OC [R406] (300 nM)

## Result
[98, 106, 84.5, 79.4, 98.3]

----------
Tested on: CAL-120
Assay: drug sensitivity score (DSS), CellTiter-Glo (DSS (AUC-based score)); higher = stronger drug effect (viability inhibition or cytotoxicity); extreme values may be limits of the assay
Settings: incubation time: 72 h
Hi there, I'd appreciate the recorded drug sensitivity score for every entry that follows.

Some solved cases for reference:
Memo: CC(C)C[C@H](NC(=O)[C@H](Cc1ccccc1)NC(=O)c1cnccn1)B(O)O [Bortezomib] , reported drug sensitivity score: 19.9

Memo: CC(C)(C)c1cc(NC(=O)Nc2ccc(-c3cn4c(n3)sc3cc(OCCN5CCOCC5)ccc34)cc2)no1 [Quizartinib] , reported drug sensitivity score: 0

Memo: O=c1[nH]cc(F)c(=O)[nH]1 [Fluorouracil] , reported drug sensitivity score: 0

Next:
Memo: Cn1c(=O)c(F)c(Nc2ccc(I)cc2F)c2c(=O)n(C[C@@H](O)CO)cnc21 [TAK-733] , reported drug sensitivity score: 4.39
